Molecular target: T1, Kapβ2(ΔLoop) (UniProt Q92973-2 1-320; Q92973-2 372-890)
T1 chain: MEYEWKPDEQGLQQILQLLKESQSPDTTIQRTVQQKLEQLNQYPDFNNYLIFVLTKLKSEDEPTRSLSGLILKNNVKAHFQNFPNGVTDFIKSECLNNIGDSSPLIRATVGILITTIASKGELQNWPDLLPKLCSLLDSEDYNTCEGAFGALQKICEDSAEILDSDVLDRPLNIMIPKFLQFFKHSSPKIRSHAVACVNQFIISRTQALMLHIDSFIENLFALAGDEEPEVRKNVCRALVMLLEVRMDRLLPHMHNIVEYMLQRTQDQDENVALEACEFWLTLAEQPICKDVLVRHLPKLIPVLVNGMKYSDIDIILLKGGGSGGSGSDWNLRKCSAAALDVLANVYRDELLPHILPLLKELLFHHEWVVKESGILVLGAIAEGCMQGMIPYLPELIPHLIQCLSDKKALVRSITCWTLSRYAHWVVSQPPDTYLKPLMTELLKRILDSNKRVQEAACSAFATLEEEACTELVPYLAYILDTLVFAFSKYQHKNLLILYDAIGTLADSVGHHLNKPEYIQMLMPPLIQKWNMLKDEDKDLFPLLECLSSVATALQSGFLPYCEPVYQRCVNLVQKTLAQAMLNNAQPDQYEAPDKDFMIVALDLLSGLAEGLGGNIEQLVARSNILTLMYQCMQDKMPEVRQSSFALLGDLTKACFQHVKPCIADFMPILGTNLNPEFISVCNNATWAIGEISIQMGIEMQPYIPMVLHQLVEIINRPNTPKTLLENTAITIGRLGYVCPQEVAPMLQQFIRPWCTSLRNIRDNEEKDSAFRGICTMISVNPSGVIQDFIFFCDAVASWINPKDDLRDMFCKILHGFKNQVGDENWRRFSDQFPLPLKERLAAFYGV
Assay: ITC
measurementName: Kd
Don't forget the unit after the value.

# input Requested field: Kd. Item: PRPRPRPRPRPRPRPRPRPRPRPRPRPRPRPRPRPR [MBP-PR18]
# output 81.3 nM

# credit: paper doi:10.1101/812099
